# System: recombinant human cytomegalovirus (HCMV)
# Assay explanation: microbe, parasite or virus in culture
# Assay type: cell-based
# Run conditions: CMV assay, Table 2; read-out: Antiviral Activity
The entries below come with measured IC50 values attached.

Consider the following illustrative entries.
molecular_string=Cc1nc(NCc2cc(Cl)ccc2Cl)nc(-n2ccnc2C)c1[N+](=O)[O-] measure=IC50 measured_result="< 100 nM"
molecular_string=Cc1nc(NCc2ccccc2OC(F)(F)F)nc(-n2ccnc2C)c1[N+](=O)[O-] measure=IC50 measured_result="100 to 500 nM"
molecular_string=Cc1nc(NCc2cc(C(F)(F)F)cc(C(F)(F)F)c2)nc(-n2ccnc2C)c1[N+](=O)[O-] measure=IC50 measured_result="> 500 nM"
molecular_string=Cc1nc(NCc2cccc(C(F)(F)F)c2)nc(-n2ccnc2C)c1[N+](=O)[O-] measure=IC50 measured_result="< 100 nM"

Lookup: Can you look up the measured IC50 of Cc1ccccc1CNc1nc(C)c([N+](=O)[O-])c(-n2ccnc2)n1 for me?
Found: > 500 nM

Lookup: Can you look up the measured IC50 of CCc1nccn1-c1nc(NCc2ccc(F)cc2Cl)nc(C)c1[N+](=O)[O-] for me?
Found: 100 to 500 nM

Lookup: Can you look up the measured IC50 of Cc1nc(NCc2cccc(Br)c2)nc(-n2ccnc2C)c1[N+](=O)[O-] for me?
Found: < 100 nM

Lookup: Can you look up the measured IC50 of Cc1nc(NCc2ccc(F)cc2Cl)nc(-n2ccnc2C)c1[N+](=O)[O-] for me?
Found: 100 to 500 nM

Lookup: Can you look up the measured IC50 of Cc1nc(NCc2cc(F)cc(F)c2F)nc(-n2ccnc2C)c1[N+](=O)[O-] for me?
Found: 100 to 500 nM

Lookup: Can you look up the measured IC50 of Cc1nc(NCc2c(F)ccc(F)c2F)nc(-n2ccnc2C)c1[N+](=O)[O-] for me?
Found: 100 to 500 nM
